target system: TRPA1 (Homo sapiens, UniProt O75762)
Construct: host or cells: HEK293 or CHO
Sequence (O75762 whole entry): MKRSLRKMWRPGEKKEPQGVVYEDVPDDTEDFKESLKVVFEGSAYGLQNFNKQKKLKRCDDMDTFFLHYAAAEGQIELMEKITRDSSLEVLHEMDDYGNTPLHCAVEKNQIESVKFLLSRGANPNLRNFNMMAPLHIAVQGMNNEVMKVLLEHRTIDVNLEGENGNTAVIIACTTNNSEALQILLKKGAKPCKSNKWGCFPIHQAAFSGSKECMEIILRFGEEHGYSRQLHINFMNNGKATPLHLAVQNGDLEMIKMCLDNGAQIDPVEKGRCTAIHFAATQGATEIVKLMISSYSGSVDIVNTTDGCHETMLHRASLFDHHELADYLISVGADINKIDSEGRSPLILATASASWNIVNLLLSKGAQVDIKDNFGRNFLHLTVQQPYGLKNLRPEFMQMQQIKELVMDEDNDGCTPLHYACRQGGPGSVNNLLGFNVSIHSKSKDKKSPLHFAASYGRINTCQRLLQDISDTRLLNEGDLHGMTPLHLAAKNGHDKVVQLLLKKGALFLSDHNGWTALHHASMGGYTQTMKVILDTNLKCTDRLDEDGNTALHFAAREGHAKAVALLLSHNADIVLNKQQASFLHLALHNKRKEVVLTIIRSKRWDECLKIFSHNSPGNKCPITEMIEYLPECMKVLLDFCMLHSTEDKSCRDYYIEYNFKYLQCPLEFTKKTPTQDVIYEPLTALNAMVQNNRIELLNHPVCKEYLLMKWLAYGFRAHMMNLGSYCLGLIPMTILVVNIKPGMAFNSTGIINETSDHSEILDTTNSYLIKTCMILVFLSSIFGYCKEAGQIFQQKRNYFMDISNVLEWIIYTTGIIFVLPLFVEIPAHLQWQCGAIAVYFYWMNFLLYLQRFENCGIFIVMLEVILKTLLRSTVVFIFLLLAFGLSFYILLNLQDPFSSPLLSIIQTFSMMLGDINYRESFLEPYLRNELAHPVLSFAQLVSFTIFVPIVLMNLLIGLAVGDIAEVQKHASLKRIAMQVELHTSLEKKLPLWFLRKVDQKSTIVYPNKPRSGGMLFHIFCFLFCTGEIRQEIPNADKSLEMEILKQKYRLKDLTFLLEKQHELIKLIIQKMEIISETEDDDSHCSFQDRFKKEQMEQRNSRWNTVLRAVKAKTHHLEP
test details: Ion channel panel (IonWorks Barracuda): TRPA1
Type: cell-based
condition notes: peptide at 0.2 μM; 100% = no change, <100% = inhibition
metric name: Activity of TRPA1 with peptide, expressed as a percentage of the reference compound (%)
// units = %; emit number, no label

QUERY: Name the recorded Activity of TRPA1 with peptide, expressed as a percentage of the reference compound for 20 (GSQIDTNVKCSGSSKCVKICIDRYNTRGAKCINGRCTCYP) [compound 20] .
RESULT: 114

QUERY: So what's the measured Activity of TRPA1 with peptide, expressed as a percentage of the reference compound for this one? 24 (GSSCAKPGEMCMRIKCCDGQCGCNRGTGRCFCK) [compound 24]
RESULT: 132

QUERY: # lookup: Activity of TRPA1 with peptide, expressed as a percentage of the reference compound of 36 (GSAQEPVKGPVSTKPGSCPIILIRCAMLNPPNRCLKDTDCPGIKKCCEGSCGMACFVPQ) [compound 36]
RESULT: 106

QUERY: Name the reported Activity of TRPA1 with peptide, expressed as a percentage of the reference compound value associated with the substance 38 (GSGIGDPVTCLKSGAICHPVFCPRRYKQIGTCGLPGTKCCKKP) [compound 38]
RESULT: 138
